Assay: Inhibition of rat intestinal sucrase
Answer each item with its documented IC50.

For reference, reported IC50 for OCCc1ccc(O)c(O)c1 [HYDROXYTYROSOL] stands at 75.1 µM

For reference, reported IC50 for C[C@H]1O[C@H](O[C@H]2[C@H](O)[C@@H](O)[C@@H](O[C@H]3[C@H](O)[C@@H](O)C(O)O[C@@H]3CO)O[C@@H]2CO)[C@H](O)[C@@H](O)[C@@H]1N[C@H]1C=C(CO)[C@@H](O)[C@H](O)[C@H]1O (stereo partly drawn) stands at 2.31 µM

For reference, reported IC50 for "O=[N+]([O-])OCCc1ccc(O)c(O)c1" stands at 68.7 µM

* * *

Assay: Antioxidant activity assessed as DPPH radical scavenging activity
Assay type: functional
observed property: pIC50
# log scale: pIC50 equals minus log10 of the concentration in mol/L

For reference, reported pIC50 for "O=C1O[C@H]([C@@H](O)CO)C(O)=C1O" stands at 3.74

For reference, reported pIC50 for OCCc1ccc(O)c(O)c1 [HYDROXYTYROSOL] stands at 3.96

For reference, reported pIC50 for "O=[N+]([O-])OCCc1ccc(O)c(O)c1" stands at 3.85
